Origin of values: paper PMC10786891

Target: T1, EsCas13d, nuclease-dead (Eubacterium siraeum, UniProt B0MS50, R295A;H300A;R849A;H854A)
T1 sequence: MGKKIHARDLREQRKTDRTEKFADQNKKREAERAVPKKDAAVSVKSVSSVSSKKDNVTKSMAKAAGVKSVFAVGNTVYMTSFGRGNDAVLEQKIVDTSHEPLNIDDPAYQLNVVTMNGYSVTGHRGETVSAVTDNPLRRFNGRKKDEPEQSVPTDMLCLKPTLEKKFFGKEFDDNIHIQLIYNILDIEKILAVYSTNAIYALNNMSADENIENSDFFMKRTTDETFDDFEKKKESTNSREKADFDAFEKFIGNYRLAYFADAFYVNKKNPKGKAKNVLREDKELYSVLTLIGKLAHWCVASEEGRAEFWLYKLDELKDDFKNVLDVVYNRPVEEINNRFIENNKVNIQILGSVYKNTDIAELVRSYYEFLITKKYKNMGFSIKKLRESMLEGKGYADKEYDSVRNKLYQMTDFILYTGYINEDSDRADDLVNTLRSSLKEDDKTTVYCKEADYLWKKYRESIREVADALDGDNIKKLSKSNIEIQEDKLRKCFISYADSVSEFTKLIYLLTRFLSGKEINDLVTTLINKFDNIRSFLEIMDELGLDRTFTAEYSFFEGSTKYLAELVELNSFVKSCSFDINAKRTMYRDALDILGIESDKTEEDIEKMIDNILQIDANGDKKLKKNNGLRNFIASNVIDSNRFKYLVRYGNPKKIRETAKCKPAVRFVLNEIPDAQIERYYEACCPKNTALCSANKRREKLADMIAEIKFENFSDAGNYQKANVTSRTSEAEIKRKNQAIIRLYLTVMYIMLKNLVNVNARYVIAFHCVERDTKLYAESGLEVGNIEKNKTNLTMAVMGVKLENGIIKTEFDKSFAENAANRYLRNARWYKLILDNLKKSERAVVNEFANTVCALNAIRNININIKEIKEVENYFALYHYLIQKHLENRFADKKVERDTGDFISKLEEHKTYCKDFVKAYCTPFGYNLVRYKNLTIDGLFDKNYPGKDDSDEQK
Test: crRNA (strand 1, pre-loaded); Mg2+; 40 mM Tris-HCl pH 7.5, 150 mM NaCl, 6 mM MgCl2, 1 mM DTT, 0.1% Tween-20, 0.2 mg/ml BSA; 25 C; 10 min per concentration, then washed
Conditions: tags: His6-TwinStrep-SUMO cleaved; N-terminal SNAP kept (SNAP-Surface 488); label: 3' end held by stalled T7 RNA polymerase
Kd: recorded values
Write the answer as a number in nM, unit excluded.

Worked examples, 3 binders total:
binder | Kd, nM
target 1 C6G,U8A (mixed) RNA 1: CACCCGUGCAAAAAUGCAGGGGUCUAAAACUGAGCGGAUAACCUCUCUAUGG RNA 2: GGGAAUGGAUCCACAUCUACGAAUUCGUACCAUAGAGAGGUUAACGGCUCACCGAGAUCGGAAGAGCACACGU | 13.8
target 1 MT 5'PFS AAC 3'PFS AUA (mixed) RNA 1: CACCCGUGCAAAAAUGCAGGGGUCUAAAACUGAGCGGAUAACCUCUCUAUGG RNA 2: GGGAAUGGAUCCACAUCUACGAAUUCAACCCAUAGAGAGGUUAUCCGCUCAAUAAGAUCGGAAGAGCACACGU | 22
target 1 insA 3' of 10,insA 3' of 8 (mixed) RNA 1: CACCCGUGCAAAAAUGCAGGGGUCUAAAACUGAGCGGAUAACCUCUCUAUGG RNA 2: GGGAAUGGAUCCACAUCUACGAAUUCGUACCAUAGAGAGGUUAAUACCGCUCACCGAGAUCGGAAGAGCACACGU | 11.3

Now for the binder whose Kd we want.
Exercise: Read the entry target 1 MT 5'PFS GGA 3'PFS UCA (mixed) RNA 1: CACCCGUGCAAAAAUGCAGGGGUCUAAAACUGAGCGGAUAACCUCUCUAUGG RNA 2: GGGAAUGGAUCCACAUCUACGAAUUCGGACCAUAGAGAGGUUAUCCGCUCAUCAAGAUCGGAAGAGCACACGU and write its reported Kd.
Solution: 17.9
